Recorded values, source patent US20070027150A1.

Listed molecules paired with reported IC50
target: His-tagged N-terminal ATP binding domain (amino acid residues 9-236) of HSP90α (Homo sapiens); experiment: HSP90 inhibitor binding potency: TRF competition binding assay; conditions: Table I; read-out: Hsp90 IC50 Range

INSERT INTO measurements (molecule, reported_result) VALUES
  ('COc1cccc(-c2cn(C)nc2C2CC(=O)c3c(C)nc(N)nc3C2)n1 (stereo not drawn) [Compound 127]', '< 1 µM'),
  ('Cc1nc(N)nc2c1C(=O)CC(c1ccccc1OCCN1CCN(C)CC1)C2 (stereo not drawn) [Compound 152]', '1 to 10 µM'),
  ('Cc1nc(N)nc2c1C(=O)CC(c1c(O)cccc1C1=CCCCC1)C2 (stereo not drawn) [Compound 62]', '< 1 µM'),
  ('Cc1nc(N)nc2c1C(=O)CC(c1cnccc1-c1cccnc1F)C2 (stereo not drawn) [Compound 61]', '< 1 µM'),
  ('Cc1nc(N)nc2c1C(=O)CC(c1cccc(C(N)=O)c1)C2 (stereo not drawn) [Compound 166]', '> 10 µM');

# lookup: IC50 of Cc1nc(N)nc2c1C(=O)CC(c1ccccc1N1CCCC1=O)C2 (stereo not drawn) [Compound 163]
1 to 10 µM

# iterate: Cc1nc(N)nc2c1C(=O)CC(c1c(Br)cnn1C)C2 (stereo not drawn) [Compound 10]
> 10 µM

# iterate: Cc1nc(N)nc2c1C(=O)CC(c1ccccc1-c1ccncc1)C2 (stereo not drawn) [Compound 27]
1 to 10 µM

# iterate: COc1cccc(-c2ccccc2C2CC(=O)c3c(C)nc(N)nc3C2)n1 (stereo not drawn) [Compound 124]
< 1 µM

# iterate: Cc1nc(N)nc2c1C(=O)CC(c1ccccc1-c1ccccc1F)C2 (stereo not drawn) [Compound 51]
< 1 µM

# iterate: Cc1nc(N)nc2c1C(=O)CC(c1cc(F)ccc1-c1cccnc1F)C2 (stereo not drawn) [Compound 88]
< 1 µM

# iterate: Cc1nc(N)nc2c1C(=O)CC(c1cccnc1-c1ccccc1F)C2 (stereo not drawn) [Compound 57]
< 1 µM

# iterate: CC(=O)Nc1cccc(-c2ccccc2C2CC(=O)c3c(C)nc(N)nc3C2)c1 (stereo not drawn) [Compound 102]
1 to 10 µM

# iterate: Cc1nc(N)nc2c1C(=O)CC(c1ccccc1-c1ccccc1Cl)C2 (stereo not drawn) [Compound 79]
< 1 µM

# iterate: Cc1nc(N)nc2c1C(=O)CC(c1c(-c3ccccn3)cccc1-c1ccccn1)C2 (stereo not drawn) [Compound 38]
< 1 µM

# iterate: Cc1nc(N)nc2c1C(=O)CC(c1ccc(F)cc1-c1cccc(F)n1)C2 (stereo not drawn) [Compound 89]
< 1 µM

# iterate: COc1ccnc(-c2ccccc2C2CC(=O)c3c(C)nc(N)nc3C2)c1 (stereo not drawn) [Compound 125]
< 1 µM

# iterate: Cc1nc(N)nc2c1C(=O)CC(c1c(-c3cccnc3F)cnn1C)C2 (stereo not drawn) [Compound 64]
1 to 10 µM

# iterate: Cc1ccc(-c2ccccc2C2CC(=O)c3c(C)nc(N)nc3C2)c(C)n1 (stereo not drawn) [Compound 66]
1 to 10 µM

# iterate: COc1cccc(-c2cccnc2F)c1C1CC(=O)c2c(C)nc(N)nc2C1 (stereo not drawn) [Compound 97]
< 1 µM

# iterate: Cc1nc(N)nc2c1C(=O)CC(c1ccccc1Nc1ccccc1)C2 (stereo not drawn) [Compound 164]
< 1 µM

# iterate: Cc1nc(N)nc2c1C(=O)CC(c1ccccc1-c1ccccc1CO)C2 (stereo not drawn) [Compound 68]
< 1 µM

* * *

Target: His-tagged N-terminal ATP binding domain (amino acid residues 9-236) of HSP90α (Homo sapiens, UniProt P07900)
Assay: HSP90 inhibitor binding potency: TRF competition binding assay
Settings: Table I; read-out: Hsp90 IC50 Range
Description: HSP90 Inhibitor Binding Potency: TRF Binding Assay In this example, the binding potency of HSP90 inhibitors as measured by a TRF binding assay is described. TRF competition binding assays were performed to determine the binding potency (IC50 values) of HSP90 inhibitors. […] After gentle shaking for 10 minutes, the plates were read in VICTOR for europium counts.
parameter measured: IC50

Previously resolved entries follow.
INSERT INTO measurements (compound, parameter_measured, reported_result) VALUES
  ('Cc1nc(N)nc2c1C(=O)CC(c1ccccc1Oc1cccc(F)n1)C2 (stereo not shown)', 'IC50', '< 1000 nM'),
  ('Cc1nc(N)nc2c1C(=O)CC(c1ccccc1-c1ccccc1Oc1ccccc1)C2 (stereo not shown)', 'IC50', '< 1000 nM'),
  ('Cc1nc(N)nc2c1C(=O)CC(c1ccccc1Br)C2 (stereo not shown)', 'IC50', '1000 to 10000 nM'),
  ('Cc1nc(N)nc2c1C(=O)CC(c1ccc(Cl)cc1)C2 (stereo not shown)', 'IC50', '< 1000 nM'),
  ('Cc1nc(N)nc2c1C(=O)CC(c1cccc(-c3ccccc3F)c1)C2 (stereo not shown)', 'IC50', '> 10000 nM');

# lookup: IC50 of COC(=O)c1ccccc1C1CC(=O)c2c(C)nc(N)nc2C1 (stereo not shown)
< 1000 nM

# iterate: Cc1nc(N)nc2c1C(=O)CC(c1ccccc1OC(C)C)C2 (stereo not shown)
< 1000 nM

# iterate: Cc1nc(N)nc2c1C(=O)CC(c1ccccc1-c1ccccc1C(F)(F)F)C2 (stereo not shown)
< 1000 nM

# iterate: Cc1nc(N)nc2c1C(=O)CC(c1ccc(Cl)cc1Cl)C2 (stereo not shown)
1000 to 10000 nM

# iterate: Cc1cccc(Oc2ccccc2C2CC(=O)c3c(C)nc(N)nc3C2)c1 (stereo not shown)
< 1000 nM

* * *

target: His-tagged N-terminal ATP binding domain (amino acid residues 9-236) of HSP90α (Homo sapiens); assay: HSP90 inhibitor binding potency: TRF competition binding assay; conditions: Table II; read-out: Hsp90 IC50 Range
pIC50: −log10 of the molar value.
parameter measured: pIC50

INSERT INTO results (compound, reported_result) VALUES
  ('COc1nc(-c2cc(F)ccc2C2CC(=O)c3c(C)nc(N)nc3C2)cnc1N (centres unmarked) [Compound 232]', '> 6.00'),
  ('Cc1nc(N)nc2c1C(=O)CC(c1nccn1C1CCCC1)C2 (centres unmarked) [Compound 189]', '> 6.00'),
  ('COc1cccc(-c2cc(F)ccc2[C@H]2CC(=O)c3c(C)nc(N)nc3C2)n1 [Compound 260]', '5.00 to 6.00'),
  ('Cc1nc(N)nc2c1C(=O)C[C@@H](c1ccc(F)cc1-c1cccc(F)n1)C2 [Compound 214]', '> 6.00'),
  ('COc1cc(Cl)c(C)cc1-n1ccnc1C1CC(=O)c2c(C)nc(N)nc2C1 (centres unmarked) [Compound 330]', '5.00 to 6.00'),
  ('COc1ccc(F)c(-c2scnc2C2CC(=O)c3c(C)nc(N)nc3C2)c1 (centres unmarked) [Compound 289]', '5.00 to 6.00');

# lookup: pIC50 of COc1cnc(-c2cc(F)ccc2[C@@H]2CC(=O)c3c(C)nc(N)nc3C2)nc1OC [Compound 288]
> 6.00

# iterate: CCc1nc(N)nc2c1C(=O)CC(c1ccc(F)cc1-c1cccc(OC)n1)C2 (centres unmarked) [Compound 316]
> 6.00

# iterate: Cc1nc(N)nc2c1C(=O)CC(c1cc(F)ccc1Br)C2 (centres unmarked) [Compound 238]
5.00 to 6.00

# iterate: Cc1nc(N)nc2c1C(=O)CC(c1ccc(F)cc1OCCC1CC1)C2 (centres unmarked) [Compound 262]
> 6.00

# iterate: COc1cc(-n2ccnc2C2CC(=O)c3c(C)nc(N)nc3C2)c(OC)cc1Cl (centres unmarked) [Compound 327]
> 6.00

# iterate: COc1nc(-c2cc(F)ccc2[C@@H]2CC(=O)c3c(C)nc(N)nc3C2)ncc1Cl [Compound 300]
> 6.00

# iterate: Nc1nc(Cc2cccc([N+](=O)[O-])c2)c2c(n1)CC(c1ccccc1)CC2=O (centres unmarked) [Compound 308]
< 5.00

# iterate: COCc1nc(N)nc2c1C(=O)CC(c1ccccc1)C2 (centres unmarked) [Compound 211]
< 5.00

* * *

Listed compounds paired with reported pIC50
target: His-tagged N-terminal ATP binding domain (amino acid residues 9-236) of HSP90α (Homo sapiens); assay: HSP90 inhibitor binding potency: TRF competition binding assay; conditions: Table II; read-out: Hsp90 IC50 Range
pIC50: −log10 of the molar value.

INSERT INTO results (compound, parameter_measured, reported_result) VALUES
  ('Nc1nc(O)c2c(n1)CC(c1ccccc1)CC2=O (centres unmarked)', 'pIC50', '< 5.00'),
  ('COc1cccc(-c2ccccc2C2CC(=O)c3cnc(N)nc3C2)n1 (centres unmarked)', 'pIC50', '> 6.00'),
  ('COc1ccnc(-c2cc(F)ccc2C2CC(=O)c3c(C)nc(N)nc3C2)n1 (centres unmarked)', 'pIC50', '> 6.00'),
  ('COc1ccccc1-c1scnc1C1CC(=O)c2c(C)nc(N)nc2C1 (centres unmarked)', 'pIC50', '> 6.00');

Could you now look at the following compound, please?
# lookup: pIC50 of COc1ccc(F)c(-n2ccnc2C2CC(=O)c3c(C)nc(N)nc3C2)c1 (centres unmarked)
5.00 to 6.00
